This listing pairs molecules with measured EC50.
target.system: Thrombopoietin receptor (Homo sapiens)
Sequence (P40238 whole entry): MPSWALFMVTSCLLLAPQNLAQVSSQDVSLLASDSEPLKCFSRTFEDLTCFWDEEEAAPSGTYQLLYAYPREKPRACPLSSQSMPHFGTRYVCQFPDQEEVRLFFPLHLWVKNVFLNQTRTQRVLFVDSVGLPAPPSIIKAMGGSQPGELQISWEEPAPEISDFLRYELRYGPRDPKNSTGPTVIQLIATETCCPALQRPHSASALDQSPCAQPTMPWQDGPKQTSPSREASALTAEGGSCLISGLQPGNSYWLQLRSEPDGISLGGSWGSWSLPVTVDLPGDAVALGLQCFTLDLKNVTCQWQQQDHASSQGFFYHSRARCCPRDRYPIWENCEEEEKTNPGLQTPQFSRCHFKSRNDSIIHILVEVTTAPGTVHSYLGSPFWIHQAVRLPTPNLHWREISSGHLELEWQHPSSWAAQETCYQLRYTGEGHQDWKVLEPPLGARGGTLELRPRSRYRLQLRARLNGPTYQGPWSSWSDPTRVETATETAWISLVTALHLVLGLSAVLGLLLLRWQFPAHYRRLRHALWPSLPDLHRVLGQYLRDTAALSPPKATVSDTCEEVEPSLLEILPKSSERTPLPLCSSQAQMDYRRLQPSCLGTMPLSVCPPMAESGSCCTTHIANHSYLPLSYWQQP
protocol: Agonist activity at human thrombopoietin receptor transfected in mouse BAF3 cells assessed as stimulation of beta lactamase activity incubated in dark up to 1 hr
Numeric only. Scale: µM

Below, each entry is followed by its recorded EC50 result.
[
  {
    "molecule": "Cc1cc(C(=O)Nc2nc(-c3cccc(C(F)(F)F)c3F)cs2)cnc1N1CCC(C(=O)O)CC1",
    "u": "µM",
    "EC50": 0.253
  },
  {
    "molecule": "O=C(Nc1nc(-c2cccc(C(F)(F)F)c2F)cs1)c1ccc(N2CCC(C(=O)O)CC2)nc1",
    "u": "µM",
    "EC50": 0.43
  },
  {
    "molecule": "O=C(Nc1nc(-c2cccc(C(F)(F)F)c2F)cs1)c1ccc(N2CCC(C(=O)O)C2)nc1 (centres undefined)",
    "u": "µM",
    "EC50": 3.3
  },
  {
    "molecule": "NS(=O)(=O)C1CCN(c2ncc(C(=O)Nc3nc(-c4cccc(C(F)(F)F)c4F)cs3)cc2Cl)CC1",
    "u": "µM",
    "EC50": 0.034
  },
  {
    "molecule": "O=C(Nc1nc(-c2cccc(C(F)(F)F)c2F)cs1)c1cnc(N2CCC(C(=O)O)CC2)c(Br)c1",
    "u": "µM",
    "EC50": 0.05
  },
  {
    "molecule": "O=C(Nc1nc(-c2cccc(C(F)(F)F)c2F)cs1)c1cnc(N2CCCC(C(=O)O)C2)c(Cl)c1 (centres undefined)",
    "u": "µM",
    "EC50": 0.294
  },
  {
    "molecule": "O=C(Nc1nc(-c2cccc(C(F)(F)F)c2F)cs1)c1cnc(N2CCNC(C(=O)O)C2)c(Cl)c1 (centres undefined)",
    "u": "µM",
    "EC50": 0.129
  },
  {
    "molecule": "C[C@@H](Nc1ncc(C(=O)Nc2nc(-c3cccc(C(F)(F)F)c3F)cs2)cc1Cl)C(=O)O",
    "u": "µM",
    "EC50": 0.057
  },
  {
    "molecule": "O=C(Nc1nc(-c2cccc(C(F)(F)F)c2F)cs1)c1cnc(N2CCC(C(=O)O)CC2)c(C(F)(F)F)c1",
    "u": "µM",
    "EC50": 0.134
  },
  {
    "molecule": "O=C(Nc1nc(-c2cccc(C(F)(F)F)c2F)cs1)c1cnc(N2CCC(C(=O)O)CC2)c(Cl)c1",
    "u": "µM",
    "EC50": 0.033
  }
]

Read the next record carefully.
Documented EC50 of O=C(Nc1nc(-c2cccc(C(F)(F)F)c2F)cs1)c1ccc(N2CCC(C(=O)O)CC2)c(Cl)c1 : 0.056
